Documented Dmax across a set of compounds
- system: BRAF V600E (Homo sapiens, UniProt P15056, V600E)
- Construct: expressed in transfected cells
- Sequence (P15056 whole entry V600E): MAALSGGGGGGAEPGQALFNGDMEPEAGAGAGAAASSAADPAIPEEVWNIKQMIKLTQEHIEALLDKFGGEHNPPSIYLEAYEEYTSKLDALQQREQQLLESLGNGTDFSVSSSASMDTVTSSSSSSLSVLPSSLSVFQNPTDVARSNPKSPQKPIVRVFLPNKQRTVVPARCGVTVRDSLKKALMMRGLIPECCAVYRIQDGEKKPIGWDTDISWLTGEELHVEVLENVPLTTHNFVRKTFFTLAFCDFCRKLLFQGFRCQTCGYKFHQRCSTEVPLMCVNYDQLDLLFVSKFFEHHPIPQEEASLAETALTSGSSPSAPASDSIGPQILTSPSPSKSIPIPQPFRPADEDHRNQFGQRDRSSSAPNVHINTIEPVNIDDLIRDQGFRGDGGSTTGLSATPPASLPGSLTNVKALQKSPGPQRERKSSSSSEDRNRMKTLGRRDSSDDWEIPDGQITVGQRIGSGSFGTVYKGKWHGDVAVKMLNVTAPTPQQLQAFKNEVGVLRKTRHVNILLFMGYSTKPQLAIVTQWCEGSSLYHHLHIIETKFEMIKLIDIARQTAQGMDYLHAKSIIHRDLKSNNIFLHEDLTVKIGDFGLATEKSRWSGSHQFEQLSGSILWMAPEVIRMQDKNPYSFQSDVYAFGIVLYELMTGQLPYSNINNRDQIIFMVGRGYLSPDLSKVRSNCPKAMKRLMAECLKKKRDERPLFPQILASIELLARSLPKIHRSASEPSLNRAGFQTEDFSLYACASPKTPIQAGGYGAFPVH
- assay.explanation: Cellular assay of target protein degradation, T-Rex 293 cells stably transfected with HA-BRAF_V600E (HA immunofluorescence, high content imaging)
- Type: cell-based
- protocol.conditions: maximum degradation observed, T-Rex 293 HA-BRAF V600E

compound: O=C1CC[C@@H](N2Cc3cc(C4CCN(CC5CCN(c6ccc(-c7cnc8[nH]cc(C(=O)c9c(F)ccc(NS(=O)(=O)N%10CC[C@@H](F)C%10)c9F)c8c7)cc6F)CC5)CC4)ccc3C2=O)C(=O)N1
Dmax: 35 to 70%
//
compound: C[C@@H]1C[C@H](CN2CCC(c3ccc4c(c3)CN([C@H]3CCC(=O)NC3=O)C4=O)CC2)CCN1c1ccc(-c2cnc3[nH]cc(C(=O)c4c(F)ccc(NS(=O)(=O)N5CC[C@@H](F)C5)c4F)c3c2)cc1
Dmax: 35 to 70%
//
compound: O=C1CCC(N2Cc3cc(C4CCN(CC5CCN(c6ccc(-c7cnc8[nH]cc(C(=O)c9c(F)ccc(NS(=O)(=O)N%10CCC(F)(F)C%10)c9F)c8c7)cc6)CC5)CC4)ccc3C2=O)C(=O)N1 (stereo not drawn)
Dmax: 35 to 70%
//
compound: CCCS(=O)(=O)Nc1ccc(F)c(C(=O)c2c[nH]c3ncc(-c4ccc(N5CCC(CN6CCC(c7ccc8c(c7)CN(C7CCC(=O)NC7=O)C8=O)CC6)CC5)cc4)cc23)c1F (stereo not drawn)
Dmax: 35 to 70%
//
compound: O=C1CC[C@@H](N2Cc3cc(OC[C@@H](O)CN4CC5(C4)CN(c4ccc(-c6cnc7[nH]cc(C(=O)c8c(F)ccc(NS(=O)(=O)N9CC[C@@H](F)C9)c8F)c7c6)cc4)C5)ccc3C2=O)C(=O)N1
Dmax: 35 to 70%
//
compound: COc1cc(N2CC(CN3CCN(c4ccc(-c5cnc6[nH]cc(C(=O)c7c(F)ccc(NS(=O)(=O)N8CC[C@@H](F)C8)c7F)c6c5)cc4)CC3)C2)cc2c1C(=O)N(C1CCC(=O)NC1=O)C2 (stereo partly drawn)
Dmax: 35 to 70%
//
compound: O=C1CCC(N2Cc3cc(CN4CCN(c5ccc(-c6cnc7[nH]cc(C(=O)c8c(F)ccc(NS(=O)(=O)N9CC[C@@H](F)C9)c8F)c7c6)cc5)C[C@@H]4CO)ccc3C2=O)C(=O)N1 (stereo partly drawn)
Dmax: > 70%
//
compound: COc1cc(N2CC(N3CCN(c4ccc(-c5cnc6[nH]cc(C(=O)c7c(F)ccc(NS(=O)(=O)N8CC[C@@H](F)C8)c7F)c6c5)cc4)CC3)C2)cc2c1C(=O)N(C1CCC(=O)NC1=O)C2 (stereo partly drawn)
Dmax: 35 to 70%

For the next question, use this compound.
Query string: Request body: readout Dmax, system BRAF V600E (Homo sapiens, UniProt P15056, V600E), query `O=C1CC[C@H](NC(=O)c2ccc(C3CCN(CC4CCN(c5ccc(-c6cnc7[nH]cc(C(=O)c8c(F)ccc(NS(=O)(=O)N9CC[C@@H](F)C9)c8F)c7c6)cc5)CC4)CC3)cc2F)C(=O)N1` . Return the value.
Result string: > 70%

----------
- system: BRAF V600E (Homo sapiens, UniProt P15056, V600E)
- Construct: expressed in transfected cells
- assay.explanation: Cellular assay of target protein degradation, T-Rex 293 cells stably transfected with HA-BRAF_V600E (HA immunofluorescence, high content imaging)
- Type: cell-based
- protocol.conditions: maximum degradation observed, T-Rex 293 HA-BRAF V600E
measurement.type: Dmax

Past entries and their recorded results:
compound: O=C1CCC(N2Cc3cc(N4CCN(C[C@H](O)Cc5ccc(-c6cnc7[nH]cc(C(=O)c8c(F)ccc(NS(=O)(=O)N9CC[C@@H](F)C9)c8F)c7c6)cc5)CC4)ccc3C2=O)C(=O)N1 (stereo partly drawn) [Compound 90]
measurement.type: Dmax
readout.value: 35 to 70%

compound: O=C1CCN(c2ccc(C3CCN(CC4CCN(c5ccc(-c6cnc7[nH]cc(C(=O)c8c(F)ccc(NS(=O)(=O)N9CC[C@@H](F)C9)c8F)c7c6)cc5)CC4)CC3)cc2F)C(=O)N1 [Compound 140]
measurement.type: Dmax
readout.value: 35 to 70%

Turning now to a further record.
Query string: Field request: Dmax | item: COc1cc(C2CCN(CC3CCN(c4ccc(-c5cnc6[nH]cc(C(=O)c7c(F)ccc(NS(=O)(=O)N8CC[C@@H](F)C8)c7F)c6c5)cn4)CC3)CC2)cc2c1C(=O)N(C1CCC(=O)NC1=O)C2 (stereo partly drawn) [Compound 164]
Result string: 35 to 70%

Every entry's value here was drawn from patent US12180193B2.
